# System: LXRb:RXRa (NR concentration 270 nM, RXRa partner concentration 90 nM)
# Assay details: PBM binding z-score (relative to random genomic background probes); higher = stronger binding; sequences stand for … in GC…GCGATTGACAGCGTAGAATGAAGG
Recorded PBM binding z-score, one value per entry.
When you answer, write just the number.

Some solved cases for reference:
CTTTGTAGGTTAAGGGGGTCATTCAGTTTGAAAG : 6.5
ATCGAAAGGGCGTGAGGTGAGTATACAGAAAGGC : 0.429

Please give the documented PBM binding z-score of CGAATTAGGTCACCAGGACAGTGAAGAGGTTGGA 2.04

----------
Recorded PBM binding z-score, one value per entry.
# Tested on: LXRa:RXRa (NR concentration 270 nM, RXRa partner concentration 90 nM)
# Assay details: PBM binding z-score (relative to random genomic background probes); higher = stronger binding; sequences stand for … in GC…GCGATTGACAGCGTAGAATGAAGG

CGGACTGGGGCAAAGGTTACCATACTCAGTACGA : 1.67
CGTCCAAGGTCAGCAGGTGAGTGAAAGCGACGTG : 3.02
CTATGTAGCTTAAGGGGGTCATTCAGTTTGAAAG : 4.44
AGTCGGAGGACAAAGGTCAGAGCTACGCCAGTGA : 4.34
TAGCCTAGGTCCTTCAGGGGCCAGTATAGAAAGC : -0.784

Please give the documented PBM binding z-score of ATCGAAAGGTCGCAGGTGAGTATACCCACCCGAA 3.65

Please give the documented PBM binding z-score of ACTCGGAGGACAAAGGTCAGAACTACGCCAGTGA 4.07

Please give the documented PBM binding z-score of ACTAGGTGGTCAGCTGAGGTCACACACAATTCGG 3.37

Please give the documented PBM binding z-score of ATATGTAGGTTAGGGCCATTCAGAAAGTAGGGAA 0.708

Please give the documented PBM binding z-score of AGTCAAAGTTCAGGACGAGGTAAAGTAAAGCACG 3.89

Please give the documented PBM binding z-score of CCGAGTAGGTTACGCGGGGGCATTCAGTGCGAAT 6.77

Please give the documented PBM binding z-score of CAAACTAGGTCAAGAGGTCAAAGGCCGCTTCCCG 6.17

Please give the documented PBM binding z-score of TCGAGTAGGCTACGGGGGCATTCAGGGATGAAGA 1.1

Please give the documented PBM binding z-score of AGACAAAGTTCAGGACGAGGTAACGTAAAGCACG 3.92

Please give the documented PBM binding z-score of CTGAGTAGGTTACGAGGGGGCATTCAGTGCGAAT 7.17

Please give the documented PBM binding z-score of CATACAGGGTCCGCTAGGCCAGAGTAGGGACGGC -0.435

Please give the documented PBM binding z-score of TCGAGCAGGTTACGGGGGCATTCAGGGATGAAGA 2.64

Please give the documented PBM binding z-score of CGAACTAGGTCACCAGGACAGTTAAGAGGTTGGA 2.32
